These entries and their values trace back to paper PMC9356065.

# key: entry, value: pIC50
Test system: MDA-MB-231
Experiment: Dark and light-activated (UVA) cytotoxicity, MTT
Assay type: cell-based
Settings: Homo sapiens, MDA-MB-231, light or radiation study; irradiation with UVA (2.0 J cm^−2); HER2− breast cancer
pIC50: −log10 of the molar value.

{"Compound": "COc1c2occc2c(NC(=O)C(C)(C)C)c2ccc(=O)oc12", "pIC50": "< 4.00"}
{"Compound": "COc1c2occc2cc2ccc(=O)oc12 [8-MOP, 8-methoxypsoralen, reference compound]", "pIC50": "< 4.00"}
{"Compound": "COc1ccc(C(=O)Nc2c3ccoc3c(OC)c3oc(=O)ccc23)cc1", "pIC50": "< 4.00"}
{"Compound": "CS(=O)(=O)CCNCc1ccc(-c2ccc3ncnc(Nc4ccc(OCc5cccc(F)c5)c(Cl)c4)c3c2)o1 [Lapatinib, reference compound]", "pIC50": 5.07}
{"Compound": "CCCCCC(=O)N(C(=O)CCCCC)c1c2ccoc2c(OC)c2oc(=O)ccc12", "pIC50": "< 4.00"}
{"Compound": "CCC(=O)Nc1c2ccoc2c(OC)c2oc(=O)ccc12", "pIC50": "< 4.00"}
{"Compound": "COc1c2occc2c(NC(=O)c2ccco2)c2ccc(=O)oc12", "pIC50": "< 4.00"}
{"Compound": "COc1c2occc2c(NC(=O)C(C)C)c2ccc(=O)oc12", "pIC50": "< 4.00"}
